- MEASURED_ON: T1, human CD47 expressed on cells (CD47 expressing CHO cells, Jurkat, HL60, DLD1, Raji) (human, UniProt Q08722 19-292)
- T1 construct: also called CHO-CD47; IAP
- TEST_DETAILS: EC50 (nM) as grade, binding on Jurkat cells; legend +++: >0.05 nM and <1 nM
pEC50: −log10 of the molar value.
MEASURED_PROPERTY: pEC50

Here is how some binders turned out for pEC50.
>  <BINDER>
ABU5 (antibody, V domains shown, Murine hybridoma monoclonal antibody; also called ABUS [sic]) VH: QVQLQQPGAELVKPGASVKMSCKASGYTFTNYWIAWVKRRPGQGLEWIGDFYPGNTSTNYNEKFKTKATLTIDTSSSTAYMQLSSLTSEDSAVYYCARRGRGGSSYWGQGTTLTVSS VL: DVLMTQTPLSLPVSLGEQASISCRSSQSIVHSNGNTYLEWYLQKPGQSPKLLIYRVANRFSGVPDRFSGSGSGTDFTLKISRVEAEDLGVYYCFQGSHVPWTFGGGTKLEIK

>  <pEC50>
9.00 to 10.30

$$$$
>  <BINDER>
ABU1 (antibody, V domains shown, Murine hybridoma monoclonal antibody) VH: EVKLVESGGGLVQPGGSRKLSCAASGFTFSDYGMAWVRQAPGKGPECVAFISNLAKRIYYVDTVTGRFTISRENAKNTLYLEMSSLRSEDTAMYYCTRAYRYALDYWGQGTTLTVSS VL: QIVLTQSPAIMSASPGEKVTMTCSASSSVSYMNWYQQKSGTSPKRWIYDTSKLASGVPARFSGSGSGTSYSLTISSMEAEDAATYYCQQWNSNPPTFGTGTKLELK

>  <pEC50>
9.00 to 10.30

$$$$
>  <BINDER>
ABU2 (antibody, V domains shown, Murine hybridoma monoclonal antibody) VH: QVQLQQPGAELVRPGASVKLSCKASGYTFTNYWMNWFKQRPEQGLEWIGRIDPYDSETLYNQKFKDKAILTVDKSSSTAYMQLSSLTSEDSAVYYCAGGGKGGFGYWGQGTLVTVSA VL: DVLMTQTPLSLPVSLGDQASISCRSSQSIVYSNGNTYLEWYLQKPGQSPKLLIYKVSNRFSGVPDRFSGSGSGTDFTLKISRVEAEDLGVYYCFQGSHVPYTFGGGTKLEIK

>  <pEC50>
9.00 to 10.30

$$$$
>  <BINDER>
ABU4 (antibody, V domains shown, Murine hybridoma monoclonal antibody) VH: QVQLQQSGPQLVRPGASVKISCKTSGYSFTNYWMQWVKQRPGQGLEWIGMIDPSDSESRLNQKFKDKATLTVDKSSSTAYMQLSSPTFEDSAVYYCARRGSPMITSFAYWGQGTLVTVSA VL: DVQITQSPSFLAASPGETITINCRASKNIGKYLAWFQEKPGKTNKLLIYSGSTLQSGIPSRFSGSGSGTDFTLTISSLEPEDFAIYYCQQHNEYPYTFGGGTKLEIK

>  <pEC50>
9.00 to 10.30

$$$$

Ask: Suppose we examine the binder Positive 1 (commercial anti-CD47 blocking antibody, eBioscience Cat#14-0479) (antibody, V domains shown, also called Pos; B6H12) VH: EVQLVESGGDLVKPGGSLKLSCAASGFTFSGYGMSWVRQTPDKRLEWVATITSGGTYTYYPDSVKGRFTISRDNAKNTLYLQIDSLKSEDTAIYFCARSLAGNAMDYWGQGTSVTVSS VL: DIVMTQSPATLSVTPGDRVSLSCRASQTISDYLHWYQQKSHESPRLLIKFASQSISGIPSRFSGSGSGSDFTLSINSVEPEDVGVYYCQNGHGFPRTFGGGTKLEIK ; what pEC50 value has been reported?
Reply: 9.00 to 10.30

FYI, the data here is from patent US20200247886A1.
